# test-system: Cytochrome P450 2C19 (Homo sapiens) (UniProt P33261)
# Sequence (P33261 whole entry, looked up): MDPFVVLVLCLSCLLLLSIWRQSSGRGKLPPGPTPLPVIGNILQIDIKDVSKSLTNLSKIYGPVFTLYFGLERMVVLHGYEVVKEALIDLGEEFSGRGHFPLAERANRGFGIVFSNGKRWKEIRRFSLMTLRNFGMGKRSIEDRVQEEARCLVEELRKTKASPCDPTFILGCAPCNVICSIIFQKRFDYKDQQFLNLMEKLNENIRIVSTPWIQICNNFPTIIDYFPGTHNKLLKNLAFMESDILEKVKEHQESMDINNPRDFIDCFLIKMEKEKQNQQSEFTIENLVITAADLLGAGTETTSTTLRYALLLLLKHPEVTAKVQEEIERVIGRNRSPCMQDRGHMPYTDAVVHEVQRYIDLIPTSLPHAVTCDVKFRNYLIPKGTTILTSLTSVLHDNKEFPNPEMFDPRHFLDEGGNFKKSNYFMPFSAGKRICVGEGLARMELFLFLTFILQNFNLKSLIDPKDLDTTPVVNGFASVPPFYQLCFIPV
# protocol-description: blockers of cytochrome P450 2C19 activity – biochemical, luminescence, ADME assay, primary screen (AID 778);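 further: plate controls were negative control wells for no effect and 2.5 mM tranylcypromine positive control for full effect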
# measurement-context: CYP2C19 Supersomes, luciferin-H EGE luminescence, 30 min; at 5 µM; active compounds read high
Out of some 96,000 compounds screened, about 20,000 (21%) were called active. The list is a sample of the results.
Reported inhibition values for a set of compounds

NC(CSC12CC3CC(CC(C3)C1)C2)C(=O)O (stereo unspecified) | 12.9% (inactive)
CSc1cc(C)n(-c2ccccc2C)c(=S)c1C(C)=O | -14.7% (inactive)
Cc1cccc(-n2ncc(C#N)c2-n2cccc2)c1 | 21.9% (inactive)
O=C(Nc1ncc2c(n1)-c1ccccc1OC2)c1ccc(Cl)cc1 | 12.7% (inactive)
Cc1ccc(CNC(=O)CCNC(=O)Cn2ccc3ccccc3c2=O)cc1 | 17.4% (inactive)

Let us move to another entry and its inhibition.
Note down inhibition recorded for CC1=NN(Cc2ccccc2)C(=O)/C1=C/c1ccc(N(C)C)cc1
10.1% (inactive)

This collection of values is drawn from PubChem BioAssay AID778.
